B1: Guanyl-specific ribonuclease Sa, P05798 (parent)
chain: DVSGTVCLSALPPEATDTLNLIASDGPFPYSQDGVVFQNRESVLPTQSYGYYHEYTVITPGARTRGTRRIITGEATQEDYYTGDHYATFSLIDQTC

- Variants of: B1
- Test context: Kitasatospora aureofaciens; pH 7; 49 °C; Thermal; DSC; PIPES 0.03 M; reversible: yes (90-95%); structure 1RGG; whole UniProt chain shown
Decision: ddG of mutation (higher = less stable) >= 0 kcal/mol yields y, all other cases yield n.

// known answers, use as guide
| Change | Qualitative label |
| --- | --- |
| E41K | y |
| E54Q | y |

Data request: Textbook exercise: given the entry R65A , state whether its ddG of mutation (higher = less stable) is greater than or equal to 0 kcal/mol.
Data returned: y

Data request: Test whether the variant E74K records ddG of mutation (higher = less stable) of 0 kcal/mol or higher.
Data returned: n

Data request: Is ddG of mutation (higher = less stable) at least 0 kcal/mol? Consider Q38A
Data returned: n

Recorded values, source FireProtDB (doi:10.1110/ps.03176803).
